Known Population Fragmented Nuclei (%) of a selection of molecules
- System: U2OS
- experiment: Multiplex assay against U2OS
- Format: toxicity, cell-based
- condition-context: human, 48 h, 1 µM, compound concentration 1 uM, replicate 2

molecule | assayed-target | uom | Population Fragmented Nuclei (%)
O=C1N/C(=N/c2ccccc2F)S/C1=C\c1ccc(C(=O)O)cc1 | U2OS | % | 6
CCOC(=O)c1c(C)[nH]c2ccc3c(c12)CN1CCc2cc(OC)ccc2C1O3 (stereo unspecified) | U2OS | % | 8
CCn1c(=O)c(-c2ccc(-c3cncs3)cc2Cl)cc2cnc(Nc3ccc(N4CCN(C)CC4)cc3)nc21 | U2OS | % | 8
Cc1cc(C)c(S(=O)(=O)N(Cc2ccc(-c3cccc(S(C)(=O)=O)c3)cc2)Cc2ccc(C(F)(F)F)o2)c(C)c1 | U2OS | % | 9
O=C(Nc1ccc(-n2nc(-c3cccnc3)cc2C(F)(F)F)cn1)c1ccc(-c2ccccc2)c(F)c1 | U2OS | % | 2
CCOc1cc(C(=O)N2CCC(N3CCN(C)CC3)CC2)ccc1Nc1ncc2c(n1)N(C1CCCC1)c1ccccc1C(=O)N2C | U2OS | % | 13
CN(C)C(=O)C(CCN1CCC(O)(c2ccc(Cl)cc2)CC1)(c1ccccc1)c1ccccc1.Cl [LOPERAMIDE HYDROCHLORIDE] | U2OS | % | 7
O=C1NC(=O)C(c2cnc3ccccn23)=C1c1cn2c3c(cc(F)cc13)CN(C(=O)N1CCCCC1)CC2 | U2OS | % | 8
Cl.O=c1c2cccn2c2ccccc2n1CCCN1CCC(c2ccc(Cl)cc2)CC1 | U2OS | % | 18
CN1C2CCC1CC(OC(c1ccc(F)cc1)c1ccc(F)cc1)C2.Cl (stereo unspecified) | U2OS | % | 1
CN1CCC(=C2c3ccccc3CC(=O)c3sccc32)CC1.O=C(O)/C=C/C(=O)O [KETOTIFEN FUMARATE] | U2OS | % | 8
COc1cc(N2CCN(C)CC2)ccc1Nc1ncc2c(n1)N(C)c1ccccc1C(=O)N2C | U2OS | % | 5
CNc1cc(Oc2cc(C(=O)Nc3cc(N4CCN(C)CC4)cc(C(F)(F)F)c3)ccc2C)ncn1 | U2OS | % | 14
Cl.Oc1ccc2c3c1O[C@H]1c4[nH]c5c(c4C[C@@]4(O)[C@@H](C2)N(CC2CC2)CC[C@]314)C[C@@]1(O)[C@H]2Cc3ccc(O)c4c3[C@@]1(CCN2CC1CC1)[C@H]5O4 | U2OS | % | 6
O=C(Nc1ccc(-c2ccnc(Nc3ccc(N4CCOCC4)cc3)n2)cc1)[C@@H]1CCCN1 | U2OS | % | 10
S=C(NCCCc1c[nH]cn1)NCCCN(Cc1ccc(Cl)c(Cl)c1)c1ccc(Br)cn1 | U2OS | % | 21

* * *

- System: HEK-293T
- experiment: Multiplex assay against HEK293T
- Type: toxicity, cell-based
- condition-context: human, 24 h, 1 µM, compound concentration 1 uM, replicate 2
Class satisfied: Population Pyknosed Nuclei (%) at least 50%. Class not satisfied: Population Pyknosed Nuclei (%) below 50%.

compound | label-class
CNC(=O)c1ccc(Nc2nc(OC3CCCC3)c3c(-c4ccc5nc(C)oc5c4)c[nH]c3n2)c(OC)c1 | not satisfied
O=C(Cc1ccc(-c2ccc(OCCN3CCOCC3)cc2)cn1)NCc1ccccc1 [TIRBANIBULIN] | satisfied
Cn1nc(C(F)(F)F)cc1-c1cnc(N2CCc3cc(S(=O)(=O)Nc4c(F)cc(Cl)cc4F)cc(N4CCCC4=O)c32)nc1 [TP-020] | not satisfied
CN[C@@H]1C[C@H]2O[C@@](C)([C@@H]1OC)n1c3ccccc3c3c4c(c5c6ccccc6n2c5c31)C(=O)NC4 [STAUROSPORINE] | satisfied
CCCS(=O)(=O)c1nc(NC2CC2)cc(-c2ccc3c(ccn3C3CC(C)(C)NC(C)(C)C3)c2)n1 | satisfied
CN1CCC(=C2c3ccccc3CC(=O)c3sccc32)CC1.O=C(O)/C=C/C(=O)O [KETOTIFEN FUMARATE] | not satisfied
Cc1ccc2nc(NCCN)c3ncc(C)n3c2c1.O=C(O)C(F)(F)F.O=C(O)C(F)(F)F | not satisfied
Cc1ccc(C(=O)Nc2cccc(C(F)(F)F)c2)cc1Nc1nc(-c2cccnc2)nc2c1cnn2C | not satisfied

* * *

Recorded Population Healthy Nuclei (%) by entry
- Tested on: U2OS
- experiment: Multiplex assay against U2OS
- Format: toxicity, cell-based
- condition-context: human, 48 h, 10 µM, compound concentration 10 uM, replicate 1
measurement-kind: Population Healthy Nuclei (%)

molecule | measurement-kind | uom | test-result
Cl.O=c1c2cccn2c2ccccc2n1CCCN1CCC(c2ccc(Cl)cc2)CC1 | Population Healthy Nuclei (%) | % | 28
O=C1NC(=O)C(c2cnc3ccccn23)=C1c1cn2c3c(cc(F)cc13)CN(C(=O)N1CCCCC1)CC2 [LY-2090314] | Population Healthy Nuclei (%) | % | 39
CCN1CCN(Cc2ccc(Nc3ncc(F)c(-c4cc(F)c5nc(C)n(C(C)C)c5c4)n3)nc2)CC1.CS(=O)(=O)O | Population Healthy Nuclei (%) | % | 2
CCc1cccc(CC)c1NC(=O)c1nn(C)c2c1CCc1cnc(Nc3ccc(C(=O)NC4CCN(C)CC4)cc3OC(F)(F)F)nc1-2 | Population Healthy Nuclei (%) | % | 34
O=C(Cc1ccc(-c2ccc(OCCN3CCOCC3)cc2)cn1)NCc1ccccc1 [TIRBANIBULIN] | Population Healthy Nuclei (%) | % | 32
Cl.O=C(c1ccc(Nc2nccc(-c3cc4ccccc4s3)n2)cc1)N1CCC(N2CCCC2)CC1 | Population Healthy Nuclei (%) | % | 6

* * *

- Tested on: Fibroblast
- experiment: Multiplex assay against human fibroblast
- Assay type: toxicity, cell-based
- condition-context: 48 h, 1 µM, compound concentration 1 uM, replicate 2
Form field: Population Apoptotic (%) (one value per entry).

compound | Population Apoptotic (%)
C=C1/C(=C\C=C2/CCC[C@]3(C)[C@@H]([C@H](C)/C=C/[C@H](C)C(C)C)CC[C@@H]23)C[C@@H](O)C[C@@H]1O | 0
CNc1cc(Oc2cc(C(=O)Nc3cc(N4CCN(C)CC4)cc(C(F)(F)F)c3)ccc2C)ncn1 | 60
O=C1NC(=O)C(c2cnc3ccccn23)=C1c1cn2c3c(cc(F)cc13)CN(C(=O)N1CCCCC1)CC2 | 75
CCOC(=O)c1c(C)[nH]c2ccc3c(c12)CN1CCc2cc(OC)ccc2C1O3 (stereo unspecified) | 100
O=C(Cc1ccc(-c2ccc(OCCN3CCOCC3)cc2)cn1)NCc1ccccc1 | 71
Cc1cc(C)c(S(=O)(=O)N(Cc2ccc(-c3cccc(S(C)(=O)=O)c3)cc2)Cc2ccc(C(F)(F)F)o2)c(C)c1 | 66
CN(C)C(=O)C(CCN1CCC(O)(c2ccc(Cl)cc2)CC1)(c1ccccc1)c1ccccc1.Cl [LOPERAMIDE HYDROCHLORIDE] | 75
CCOc1cc2ncc(C#N)c(Nc3ccc(OCc4ccccn4)c(Cl)c3)c2cc1NC(=O)/C=C/CN(C)C | 33
Cl.Oc1ccc2c3c1O[C@H]1c4[nH]c5c(c4C[C@@]4(O)[C@@H](C2)N(CC2CC2)CC[C@]314)C[C@@]1(O)[C@H]2Cc3ccc(O)c4c3[C@@]1(CCN2CC1CC1)[C@H]5O4 | 75
O=C(Nc1ccc(-c2ccnc(Nc3ccc(N4CCOCC4)cc3)n2)cc1)[C@@H]1CCCN1 | 50
S=C(NCCCc1c[nH]cn1)NCCCN(Cc1ccc(Cl)c(Cl)c1)c1ccc(Br)cn1 | 50
Cc1cn(-c2cc(NC(=O)c3ccc(C)c(Nc4nccc(-c5cccnc5)n4)c3)cc(C(F)(F)F)c2)cn1 | 100
CN1CCC(=C2c3ccccc3CC(=O)c3sccc32)CC1.O=C(O)/C=C/C(=O)O [KETOTIFEN FUMARATE] | 40
CCc1cccc(CC)c1NC(=O)c1nn(C)c2c1CCc1cnc(Nc3ccc(C(=O)NC4CCN(C)CC4)cc3OC(F)(F)F)nc1-2 | 20
O=C(Nc1ccc(Cl)cc1)Nc1cccc(-c2cccc(N3CCCC3)n2)c1 | 0
O=C(Nc1ccc(-n2nc(-c3cccnc3)cc2C(F)(F)F)cn1)c1ccc(-c2ccccc2)c(F)c1 | 100
CN1C2CCC1CC(OC(c1ccc(F)cc1)c1ccc(F)cc1)C2.Cl (stereo unspecified) | 0
CCCn1c(=O)c2[nH]c(-c3cnn(Cc4cccc(C(F)(F)F)c4)c3)nc2n(CC)c1=O | 100
CCCS(=O)(=O)c1nc(NC2CC2)cc(-c2ccc3c(ccn3C3CC(C)(C)NC(C)(C)C3)c2)n1 | 75
CCOc1cc(C(=O)N2CCC(N3CCN(C)CC3)CC2)ccc1Nc1ncc2c(n1)N(C1CCCC1)c1ccccc1C(=O)N2C | 100
Cc1ccc(C(=O)Nc2cccc(C(F)(F)F)c2)cc1Nc1nc(-c2cccnc2)nc2c1cnn2C | 75
Cl.O=c1c2cccn2c2ccccc2n1CCCN1CCC(c2ccc(Cl)cc2)CC1 | 66
COc1cc(N2CCN(C)CC2)ccc1Nc1ncc2c(n1)N(C)c1ccccc1C(=O)N2C | 100
CCN1CCN(Cc2ccc(Nc3ncc(F)c(-c4cc(F)c5nc(C)n(C(C)C)c5c4)n3)nc2)CC1.CS(=O)(=O)O | 75
O=C1N/C(=N/c2ccccc2F)S/C1=C\c1ccc(C(=O)O)cc1 | 50
CCn1c(=O)c(-c2ccc(-c3cncs3)cc2Cl)cc2cnc(Nc3ccc(N4CCN(C)CC4)cc3)nc21 | 0
